// reported log10(IC50) for each item listed
- system: rhCatC (Homo sapiens (Human))
- Sequence (P53634 25-134): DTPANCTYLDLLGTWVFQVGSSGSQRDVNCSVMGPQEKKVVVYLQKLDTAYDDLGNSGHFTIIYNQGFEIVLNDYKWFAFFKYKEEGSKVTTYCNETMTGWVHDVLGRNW
- Sequence (P53634 231-394): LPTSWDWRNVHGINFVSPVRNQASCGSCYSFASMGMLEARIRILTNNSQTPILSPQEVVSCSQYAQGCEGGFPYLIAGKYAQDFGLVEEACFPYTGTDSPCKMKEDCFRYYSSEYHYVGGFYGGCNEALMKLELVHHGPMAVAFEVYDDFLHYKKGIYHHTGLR
- Sequence (P53634 395-463): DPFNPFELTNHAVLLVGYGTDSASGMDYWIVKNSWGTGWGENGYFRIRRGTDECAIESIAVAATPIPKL
- test_description: In vitro enzyme activity experiment of rhCatC (AMC fluorescence assay)
- Assay type: biochemical
- recorded_conditions: rhCatC enzyme, substrate H-Gly-Arg-AMC; read-out: Biological activity IC50
Kindly note that the scale is log10 and the underlying IC50 is in nM.

Prompt: Provide one value: measured log10(IC50) of CS(=O)(=O)c1ccc2c(c1)COc1cc(CC(C#N)NC(=O)[C@@H]3CNCCCO3)c(F)cc1-2 (some centres unmarked)
Completion: 1.23

* * *

- system: UniProt:P53634
- test_description: In vitro CatC cell activity experiment in U937 cell line
- Format: cell-based
experimental_endpoint: pIC50
Reminder that pIC50 is minus the log10 of a molar concentration.

[[record]]
compound = "N#C[C@H](Cc1ccc2c(c1)OCc1cc(F)c(F)cc1-2)NC(=O)[C@@H]1CNCCCO1"
endpoint_result = 6.73

[[record]]
compound = "N#Cc1cc2c(cn1)-c1cc(F)c(CC(C#N)NC(=O)[C@@H]3CNCCCO3)cc1OC2 (stereo partly shown)"
endpoint_result = 7.53

[[record]]
compound = "N#Cc1ccc2c(c1)COc1cc(C[C@@H](C#N)NC(=O)[C@@H]3CNCCCO3)c(Cl)cc1-2"
endpoint_result = 7.61

[[record]]
compound = "N#Cc1ccc2c(c1)-c1cc(F)c(C[C@@H](C#N)NC(=O)[C@@H]3CNCCCO3)cc1OC2"
endpoint_result = 8.15

[[record]]
compound = "N#CC(Cc1ccc2c(c1)OCc1ccc(C3COC3)cc1-2)NC(=O)[C@@H]1CNCCCO1 (stereo partly shown)"
endpoint_result = 7.30


Prompt: For UniProt:P53634, give pIC50 of the listed compound: CS(=O)(=O)c1ccc2c(c1)COc1cc(CC(C#N)NC(=O)[C@@H]3CNCCCO3)c(F)cc1-2 (stereo partly shown)
Completion: 7.43

* * *

- test_description: Pharmacokinetic experiment in BALB/c mice
- Format: in vivo
- recorded_conditions: male, mouse, plasma, IV, 2 mg/kg
experimental_endpoint: half-life (h)
Response body: numeric value in h, unit text excluded.

[[record]]
compound = "Cn1c(=O)oc2ccc(-c3ccc(C[C@@H](C#N)NC(=O)[C@@H]4CNCCCO4)cc3)cc21 [AZD7986, reference compound]"
experimental_endpoint = "half-life"
units_label = "h"
endpoint_result = 2.74


Now, please, on to the next compound.
Prompt: Provide one value: measured half-life of N#Cc1ccc2c(c1)COc1cc(C[C@@H](C#N)NC(=O)[C@@H]3CNCCCO3)c(F)cc1-2 [Compound 14]
Completion: 3.08

* * *

// reported clearance for each item listed
- test_description: Pharmacokinetic experiment in BALB/c mice
- Type: in vivo
- recorded_conditions: male, mouse, plasma, IV, 2 mg/kg
Response body: numeric value in mL/min/kg, unit text excluded.

[[record]]
compound = "Cn1c(=O)oc2ccc(-c3ccc(C[C@@H](C#N)NC(=O)[C@@H]4CNCCCO4)cc3)cc21 [AZD7986, reference compound]"
units_label = "mL/min/kg"
endpoint_result = 15.1


Prompt: Provide one value: measured clearance of N#Cc1ccc2c(c1)COc1cc(C[C@@H](C#N)NC(=O)[C@@H]3CNCCCO3)c(F)cc1-2
Completion: 8.49
